Measurement kind: melting point (°C)

[1] CCCCCCCCCCCCCCC/C=C/C=O
[2] Oc1ccc(C(O)CN2CCN(C(c3ccccc3)c3ccccc3)CC2)cc1 (stereo not given)
query: Between 1 and 2 , which one shows the larger melting point value? Use the label to indicate which entry you chose.
result: 2

---

Measurement kind: melting point

query: Give melting point for COc1cc(CC#N)c([N+](=O)[O-])cc1C(F)(F)F
result: 103 to 104 °C

query: Check the records and state melting point for CC(C(=O)O)c1ccc2oc(-c3ccccc3)nc2c1 (stereo unspecified)
result: 177 to 179 °C

query: Report measured melting point; entry is CCOc1c(C)c(N2CCN(c3ccc(OC)cc3)CC2)c(C)c2c1OC(C)(C)C2=O
result: 109 to 112 °C

# credit: a melting point compilation (Tetko et al.; mined from patent text by program, amines drawn as free bases though some values may be those of a salt)
